# TEST: recombinant barcode read abundance after kanamycin selection (control-corrected) (log10(CPM+1)); higher = more efficient recombination; sequences stand for … in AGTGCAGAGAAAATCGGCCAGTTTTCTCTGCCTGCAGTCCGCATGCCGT…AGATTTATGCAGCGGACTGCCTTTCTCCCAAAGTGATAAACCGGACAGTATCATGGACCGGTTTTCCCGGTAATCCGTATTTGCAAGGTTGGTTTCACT; site = the 11-nt target;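 further: IS621 recombinase and bridge RNA in Escherichia coli cells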
QUANTITY KIND: recombinant barcode read abundance (log10)

RESIDUE STRING	MEASURED RESULT
TTGTACACTTGGGTTCTAACCTGTTGCCC (site TTGTACACTGG)	0.996
CGTGCAGCTTGGGTTCTAACCTGTTGCCT (site CGAGCAGCTAG)	0.508
CTAGACGCTTGGGTTCTAACCTGTTGCCT (site CAAGACGCTAG)	1.41
GTCGTCCCTTGGGTTCTAACCTGTTGCCT (site GTCGTCACTAG)	0.0509
ATAGAGTCTTGGGTTCTAACCTGTTGCTT (site AGAGAGTCTAA)	0.352
GGTAGATCTTGGGTTCTAACCTGTTGCTT (site GGTAGATCTAA)	0.599
AGCCTCCCTTGGGTTCTAACCTGTTGCCT (site AGTCTCCCTAG)	0.578
AGTTCGCCTTGGGTTCTAACCTGTTGCTA (site AGTTCGCCTTA)	0.012
CTTCGGGCTTGGGTTCTAACCTGTTGCAG (site CGTCGGGCTCT)	0.0132
GTGTGAGCTTGGGTTCTAACCTGTTGCCG (site GTGTGAGCTCG)	1.74
ACCAGGACTTGGGTTCTAACCTGTTGCCG (site GAGCCTCCTAT)	0.091
TGCTGTACTTGGGTTCTAACCTGTTGCCT (site TGCTGTTCTAG)	0.0131
TCCCATCCTTGGGTTCTAACCTGTTGCCT (site TCCCATGCTAG)	0.0237
ACCAGAGCTTGGGTTCTAACCTGTTGCCT (site ACCAGAGCTAG)	0.823
GATACGGCTTGGGTTCTAACCTGTTGCCT (site GATACGGCTAG)	0.149
CCTACTCCTTGGGTTCTAACCTGTTGCAG (site CCTACTACTCG)	0.0435
CGCTCGACTTGGGTTCTAACCTGTTGCCT (site CGCTCGACTAG)	0.0944
TCGAGTCCTTGGGTTCTAACCTGTTGCCT (site TCGAGTGCTAG)	0.179
CGGGCCTCTTGGGTTCTAACCTGTTGCTC (site CGGGCCTCTTA)	0.0944
AAACTTACTTGGGTTCTAACCTGTTGCCT (site AAACTTACTAG)	0.721
GTCGTCTCTTGGGTTCTAACCTGTTGCCT (site GTCGTCTCTAG)	1.65
CTTTAGACTTGGGTTCTAACCTGTTGCAT (site CTTTAGACTAT)	0.926
GTGTCTCCTTGGGTTCTAACCTGTTGCCT (site CTGTCTCCTAG)	0.103
CAGGTCCCTTGGGTTCTAACCTGTTGCCG (site ATACGTTCTAT)	0.102
CATCCTACTTGGGTTCTAACCTGTTGCAT (site CATCCTACTAT)	0.665
TACTACCCTTGGGTTCTAACCTGTTGCCT (site TGCTACCCTAG)	0.0397
ACCTGGGCTTGGGTTCTAACCTGTTGCCT (site AGCTGGGCTAG)	0
AGAGGTCCTTGGGTTCTAACCTGTTGCCT (site TGAGGGCCTAG)	0.169
TTCGACGCTTGGGTTCTAACCTGTTGCCT (site TTAGACTCTAG)	0.152
TCTCGTTCTTGGGTTCTAACCTGTTGCTA (site TCTCGTTCTTA)	0.102
CGTGGTCCTTGGGTTCTAACCTGTTGCGT (site CGTGGTCCTAT)	1.25
GCTGGTCCTTGGGTTCTAACCTGTTGCCT (site GCGGGTCCTAG)	0.205
CGTACCTCTTGGGTTCTAACCTGTTGCTA (site CGTACCTCTAA)	0.124
TCCCATCCTTGGGTTCTAACCTGTTGCGT (site TCCTATCCTAC)	0.0583
TATACACCTTGGGTTCTAACCTGTTGCGT (site CTCCGGGCTCT)	0.0474
CTCGTTACTTGGGTTCTAACCTGTTGCCT (site CTCGTCACTAG)	0.112
ACTAGTCCTTGGGTTCTAACCTGTTGCAT (site ACTAGTCCTAG)	0.0896
CATCGCACTTGGGTTCTAACCTGTTGCCT (site CCTCGCACTAG)	0.289
TGCGAGTCTTGGGTTCTAACCTGTTGCCT (site TGCGAGTCTAG)	1.12
CACTTCCCTTGGGTTCTAACCTGTTGCTT (site CACTTCCCTAC)	0.0814
CAAACACCTTGGGTTCTAACCTGTTGCTT (site CAAGCACCTAA)	0.0323
CTACGCTCTTGGGTTCTAACCTGTTGCAC (site CTACGCTCTGT)	1.78
